Data credit: patent US20100324067A1

Test system: HIV-1
Test: Inhibitory activity against HIV-1 (literature method, Chen et al. J Virol 1997)
Settings: Human immunodeficiency virus 1, read-out: Anti-HIV (%, 1.0 μM)
measure: inhibition at 1 µM (%)
Provide the reading as a plain figure in %.

**Q:** What value of inhibition at 1 µM has been recorded for this entry: CCCc1c(Cl)c(=O)oc2c3c(c4c(c12)OCC(C)C4OCC)OC(C)CC3=O (stereo not drawn)
**A:** 51.7

**Q:** What value of inhibition at 1 µM has been recorded for this entry: CC1CC(=O)c2c(c3c(c4c(CCC(F)(F)F)cc(=O)oc24)OC(c2ccccc2)C=C3)O1 (stereo not drawn)
**A:** 47.6

**Q:** What value of inhibition at 1 µM has been recorded for this entry: CCCc1cc(=O)oc2c3c(c4c(c12)OC(CCC)C=C4)OC(C)CC3=O (stereo not drawn)
**A:** 54.1

**Q:** What value of inhibition at 1 µM has been recorded for this entry: CCc1cc(=O)oc2c3c(c4c(c12)OC(C)(C)C=C4)OC(C)CC3=O (stereo not drawn)
**A:** 73.2

**Q:** What value of inhibition at 1 µM has been recorded for this entry: CCCc1cc(=O)oc2c3c(c4c(c12)OC(C)(C)C=C4)OCC(C)C3=O (stereo not drawn)
**A:** 38.9

Let us examine a further case.
**Q:** What value of inhibition at 1 µM has been recorded for this entry: CCCc1c(Cl)c(=O)oc2c3c(c4c(c12)OC(C)(C)C=C4)OC(C)CC3=O (stereo not drawn)
**A:** 68.1

---

Each entry below lists one item and its recorded inhibition at 1 µM value.
Test system: HIV-1
Assay: Inhibitory activity against HIV-1 (literature method, Chen et al. J Virol 1997)
Settings: Human immunodeficiency virus 1, read-out: Anti-HIV (%, 1.0 μM)
Provide the reading as a plain figure in %.

Some entries whose results are on file:
**Q:** What value of inhibition at 1 µM has been recorded for this entry: CCCC1C=Cc2c3c(c4oc(=O)cc(CC)c4c2O1)C(=O)CC(C)O3 (stereo not drawn)
**A:** 97

**Q:** What value of inhibition at 1 µM has been recorded for this entry: CC1CC(=O)c2c(c3c(c4c5c(c(=O)oc24)CCCC5)OC(C)(C)C=C3)O1 (stereo not drawn)
**A:** 67

**Q:** What value of inhibition at 1 µM has been recorded for this entry: CCCc1cc(=O)oc2c3c(c4c(c12)OC(C)(C)C=C4)OC(c1ccccc1)CC3=O (stereo not drawn)
**A:** 62.7

**Q:** What value of inhibition at 1 µM has been recorded for this entry: CCCc1c(Cl)c(=O)oc2c3c(c4c(c12)OCC(C)=C4)OC(C)CC3=O (stereo not drawn)
**A:** 49.1

**Q:** What value of inhibition at 1 µM has been recorded for this entry: CCCCc1cc(=O)oc2c3c(c4c(c12)OC(c1ccccc1)C=C4)OC(C)CC3=O (stereo not drawn)
**A:** 96.4

Next:
**Q:** What value of inhibition at 1 µM has been recorded for this entry: CCCc1c(F)c(=O)oc2c3c(c4c(c12)OC(C)(C)C=C4)OC(C)CC3=O (stereo not drawn)
**A:** 45.3

**Q:** What value of inhibition at 1 µM has been recorded for this entry: `CCCc1cc(=O)oc2c3c(c4c(c12)OC(C)(C)C=C4)O[C@@H]1CCCC[C@H]1C3=O`
**A:** 40

**Q:** What value of inhibition at 1 µM has been recorded for this entry: CCCCC1C=Cc2c3c(c4oc(=O)cc(CCC(F)(F)F)c4c2O1)C(=O)CC(C)O3 (stereo not drawn)
**A:** 53.6

**Q:** What value of inhibition at 1 µM has been recorded for this entry: CCCc1c(Cl)c(=O)oc2c3c(c4c(c12)OC(c1ccccc1)C=C4)OC(C)CC3=O (stereo not drawn)
**A:** 96.3

**Q:** What value of inhibition at 1 µM has been recorded for this entry: CC1CC(=O)c2c(c3c(c4c(CN5CCN(C)CC5)cc(=O)oc24)OC(C)(C)C=C3)O1 (stereo not drawn)
**A:** 48.3

**Q:** What value of inhibition at 1 µM has been recorded for this entry: CCCc1cc(=O)oc2c3c(c4c(c12)OC(c1ccccc1[N+](=O)[O-])CC4OCC)OC(C)CC3=O (stereo not drawn)
**A:** 61

**Q:** What value of inhibition at 1 µM has been recorded for this entry: C/C=C/C1C=Cc2c3c(c4oc(=O)cc(CCC)c4c2O1)C(=O)C(C)CO3 (stereo not drawn)
**A:** 37.8
